Source: ChEMBL document CHEMBL4004885

- System: HGC-27
- experiment.summary: Cytotoxicity against human HGC27 cells assessed as decrease in cell proliferation after 48 hrs by MTT assay
- Type: functional, cell-based
- test.context: HGC-27, 48 h
Could you please report measured IC50 for the items listed next?
Express it in nM; write the number only.

Name the recorded IC50 of the item "CC[C@@H](C(=O)[C@@H](C)[C@@H](O)[C@H](C)[C@@H]1O[C@@H]([C@@H](CC)C(=O)ONC(=O)c2ccccc2O)CC[C@@H]1C)[C@H]1O[C@]2(C=C[C@@H](O)[C@]3(CC[C@@](C)([C@H]4CC[C@](O)(CC)[C@H](C)O4)O3)O2)[C@H](C)C[C@@H]1C" in your answer.
920

Return reported IC50. Input compound: "CC[C@@H](C(=O)[C@@H](C)[C@@H](O)[C@H](C)[C@@H]1O[C@@H]([C@@H](CC)C(=O)ONC(=O)c2ccccc2)CC[C@@H]1C)[C@H]1O[C@]2(C=C[C@@H](O)[C@]3(CC[C@@](C)([C@H]4CC[C@](O)(CC)[C@H](C)O4)O3)O2)[C@H](C)C[C@@H]1C"
920

Fill in reported IC50 for this entry: "CC[C@@H](C(=O)[C@@H](C)[C@@H](O)[C@H](C)[C@@H]1O[C@@H]([C@@H](CC)C(=O)ONC(=O)Cc2ccccc2Br)CC[C@@H]1C)[C@H]1O[C@]2(C=C[C@@H](O)[C@]3(CC[C@@](C)([C@H]4CC[C@](O)(CC)[C@H](C)O4)O3)O2)[C@H](C)C[C@@H]1C"
760
